molecular target: Paired box protein Pax-8 (Homo sapiens); assay: inhibitors of PAX8-driven TPO luciferase reporter, dose response, RMG-I cells, cherry-pick (AID 687027); type: functional, cell-based;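 further: luciferase reporter driven by Pax8 target thyroperoxidase promoter measured by SteadyGlo luminescence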
Sequence (Q06710 whole entry): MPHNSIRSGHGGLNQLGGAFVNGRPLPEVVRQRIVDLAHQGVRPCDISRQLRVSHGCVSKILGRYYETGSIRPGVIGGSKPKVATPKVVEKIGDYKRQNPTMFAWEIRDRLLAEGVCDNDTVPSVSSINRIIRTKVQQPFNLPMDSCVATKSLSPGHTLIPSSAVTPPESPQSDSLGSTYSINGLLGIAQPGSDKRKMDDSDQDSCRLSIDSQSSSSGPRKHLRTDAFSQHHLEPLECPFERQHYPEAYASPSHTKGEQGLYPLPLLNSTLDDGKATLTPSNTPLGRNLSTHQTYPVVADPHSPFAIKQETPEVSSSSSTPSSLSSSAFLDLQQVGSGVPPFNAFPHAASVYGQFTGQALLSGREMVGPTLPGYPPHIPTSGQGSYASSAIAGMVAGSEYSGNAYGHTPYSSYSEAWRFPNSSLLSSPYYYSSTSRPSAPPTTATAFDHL
Calls of active or inactive are those of the source.
Measured quantity: AC50

The examples below pair each entry with its known result.
- Substance smiles: "Cc1cccc(C)c1NS(=O)(=O)c1ccc(-c2cnc(C3CC3)o2)cc1"
  Value reported: "1.74 µM (active)"
- Substance smiles: "C[C@@H]1CN([C@@H](C)CO)C(=O)c2cc(N(C)C)ccc2O[C@@H](C)CCCCO[C@H]1CN(C)S(=O)(=O)c1ccc(F)cc1"
  Value reported: "6.76 µM (active)"
- Substance smiles: "C[C@@H]1CN([C@H](C)CO)C(=O)c2cc(NC(=O)CCC(F)(F)F)ccc2O[C@@H](C)CCCCO[C@@H]1CN(C)Cc1ccc(Cl)c(Cl)c1"
  Value reported: "7.47 µM (active)"

# compound COc1ccc(NC(=O)Nc2ccc3c(c2)CC(=O)N([C@H](C)CO)C[C@@H](C)[C@@H](CN(C)Cc2ccc(Oc4ccccc4)cc2)O3)cc1 ; its AC50 = 23.5 µM (active)

----------
target: FAD-linked sulfhydryl oxidase ALR (Homo sapiens, UniProt P55789); experiment: inhibitors of human ALR sulfhydryl oxidase, dose response, biochemical, H2O2 detection, luminescence, cherry-pick (AID 493248)
Sequence (P55789 whole entry): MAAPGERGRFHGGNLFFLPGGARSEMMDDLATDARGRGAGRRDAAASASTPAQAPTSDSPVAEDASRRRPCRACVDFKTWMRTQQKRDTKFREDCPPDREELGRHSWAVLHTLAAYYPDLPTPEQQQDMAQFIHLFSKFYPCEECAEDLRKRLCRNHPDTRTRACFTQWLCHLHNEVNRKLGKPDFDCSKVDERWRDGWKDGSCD
The source made the active and inactive calls.
Measured quantity: AC50

The examples below pair each entry with its known result.
- Compound: "CCN(CC)S(=O)(=O)c1cccc(C(=O)N/N=C/c2cc(OC)c(O)c(OC)c2)c1"
  Tested system: "FAD-linked sulfhydryl oxidase ALR (Homo sapiens, UniProt P55789)"
  Value reported: "210 nM (active)"
- Compound: "CC1=NN(c2ccccc2)C(=O)C1c1ccccc1 (stereo not drawn)"
  Tested system: "FAD-linked sulfhydryl oxidase ALR (Homo sapiens, UniProt P55789)"
  Value reported: "2860 nM (active)"
- Compound: "COc1cc(/C=N/n2c(S)nnc2-c2[nH]nc3c2CCC3)cc(OC)c1O"
  Tested system: "FAD-linked sulfhydryl oxidase ALR (Homo sapiens, UniProt P55789)"
  Value reported: "11 nM (active)"

Required: AC50, one value per compound below.
1. O=C1N=C(c2ccccc2)C(c2ccccc2)N1 (stereo not drawn)
2. COc1ccc([N+](=O)[O-])c(S(=O)(=O)c2ccccc2)n1
3. CN(C)CCNC(=O)C(=O)NCC(c1ccc2c(c1)OCO2)N1CCN(c2ccc(F)cc2)CC1 (stereo not drawn)
4. Cn1c(S)nnc1CCNC(=O)c1ccc(Cl)cc1
5. Cc1ccc(Nc2nc(CSc3nnnn3C)cs2)cc1
6. O=C(Nc1ccccc1)C1Cc2ccccc2CN1C(=O)c1ccco1 (stereo not drawn)
7. Cc1ccccc1NS(=O)(=O)c1cccc2nonc12

["318 nM (active)", "501 nM (active)", "439 nM (active)", "1540 nM (active)", "1540 nM (active)", "12900 nM (active)", "8510 nM (active)"]

Required: AC50, one value per compound below.
1. CN(C)c1ccc(C(=O)Nc2nc3c(s2)CCCC3)cc1
2. COc1ccc(CC(=O)N2CCN=C2SCc2ccc([N+](=O)[O-])cc2)cc1

1: 188 nM (active); 2: < 5 nM (active)

# compound O=C(O)CCc1ccc(-c2cccs2)n1NC(=O)c1ccccc1Br ; its AC50 = 6950 nM (active)

----------
Target: Zinc finger protein mex-5 (Caenorhabditis elegans)
Sequence (Q9XUB2 whole entry): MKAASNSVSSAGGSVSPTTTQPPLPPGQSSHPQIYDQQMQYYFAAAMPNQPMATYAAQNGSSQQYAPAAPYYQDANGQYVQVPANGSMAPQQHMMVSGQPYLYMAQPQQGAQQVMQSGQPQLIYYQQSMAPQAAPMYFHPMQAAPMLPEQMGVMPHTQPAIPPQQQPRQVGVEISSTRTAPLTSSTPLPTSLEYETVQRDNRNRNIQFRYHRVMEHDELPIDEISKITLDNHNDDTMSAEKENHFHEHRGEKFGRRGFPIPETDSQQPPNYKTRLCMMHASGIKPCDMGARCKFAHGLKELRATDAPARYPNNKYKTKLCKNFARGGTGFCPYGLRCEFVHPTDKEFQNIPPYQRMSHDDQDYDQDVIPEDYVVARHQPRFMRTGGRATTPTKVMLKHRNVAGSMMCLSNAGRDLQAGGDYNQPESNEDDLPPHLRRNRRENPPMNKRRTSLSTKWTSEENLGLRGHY
Experiment: MEX-5/TCR-2 RNA interaction inhibitors, dose response, biochemical, C. elegans, fluorescence polarization (AID 1960)
Activity calls are given as the source filed them.
Measured quantity: EC50

- Molecule: "O=C(NCC1CCCO1)c1nn2c(C(F)(F)F)cc(-c3cc(Br)cs3)nc2c1Br (stereo not given)"
  EC50: "> 300 µM (inconclusive)"
- Molecule: "COc1ccc(N2C(=O)/C(=C/c3ccc(C)o3)C(=O)NC2=S)c(OC)c1"
  EC50: "41.3 µM (active)"
- Molecule: "CCN(CC)C(=O)CSc1nnc2nnc3cc(Cl)ccc3n12"
  EC50: "18.5 µM (active)"
- Molecule: "CCc1cc(C(=O)Nc2ccc(OC)nc2)sc1C"
  EC50: "9.29 µM (active)"
- Molecule: "O=C1CSC(=S)N1/N=C/c1ccc(Cl)c([N+](=O)[O-])c1"
  EC50: "15.7 µM (active)"
- Molecule: "CCN(CC)c1nc(-c2nnn[nH]2)nc(N(CC)CC)n1"
  EC50: "> 300 µM (not active)"
- Molecule: "CN1CCN(/C=N/C2=C(C#N)C(c3ccccc3)C3=C(CC(C)(C)CC3=O)O2)CC1 (stereo not given)"
  EC50: "> 300 µM (not active)"
- Molecule: "Cc1cc(/C=C2/C(=O)NC(=O)N(c3ccccc3)C2=O)c(C)n1-c1ccc(F)cc1"
  EC50: "77.3 µM (active)"
- Molecule: "Cc1cc2c3c(c1)C(C)CC(C)(C)N3C(=O)C2=O (stereo not given)"
  EC50: "> 300 µM (not active)"

Next item in the queue.
# molecule Cc1ccc(S(=O)(=O)NNC(=S)NC(=O)c2ccc([N+](=O)[O-])cc2)cc1 ; its EC50 = 21.1 µM (active)

----------
target: Carboxy-terminal domain RNA polymerase II polypeptide A small phosphatase 1 (Homo sapiens); test: inhibitors of CTDSP1, concentration-response testing, biochemical assay, absorbance-based, actives from ultra-high-throughput screening (AID 540297); type: functional
Sequence (Q9GZU7 whole entry, the tested form may be a part): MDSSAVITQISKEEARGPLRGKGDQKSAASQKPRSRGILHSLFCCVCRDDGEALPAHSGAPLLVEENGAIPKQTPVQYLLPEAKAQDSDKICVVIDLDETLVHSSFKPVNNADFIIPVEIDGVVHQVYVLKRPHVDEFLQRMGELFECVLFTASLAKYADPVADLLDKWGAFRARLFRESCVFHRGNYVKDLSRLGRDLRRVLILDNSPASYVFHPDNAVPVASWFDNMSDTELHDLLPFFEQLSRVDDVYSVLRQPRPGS
Activity calls are given as the source filed them.
Measured quantity: IC50

- Compound: "COc1ccc2cc3c(N)nn(C(=O)c4cccc([N+](=O)[O-])c4)c3nc2c1"
  IC50: "4.35 µM (active)"
- Compound: "C[n+]1cnc(-c2ccccc2)cc1-c1ccccc1"
  IC50: "3.35 µM (active)"
- Compound: "O=C(Cc1nnc(NC(=O)c2ccccc2)s1)N/N=C/c1ccc(O)cc1"
  IC50: "8.5 µM (active)"

Required: IC50, one value per compound below.
1. C=CCNC(=O)COC(=O)c1c2c(nc3ccccc13)CCC2
2. Cc1oc2c(C)c3oc(=O)c(CC(=O)N[C@@H](CC(C)C)C(=O)N[C@@H](Cc4ccccc4)C(=O)O)c(C)c3cc2c1C
3. Cc1cccc(C(=O)OCC(=O)c2ccc(CC(=O)N3CCOCC3)s2)c1C
4. C=C(C)C(=O)Nc1cccc(C2=NOC3(C2)C[C@@H](C(N)=O)N(C(=O)c2cc([N+](=O)[O-])cc([N+](=O)[O-])c2C)C3)c1 (stereo partly specified)
5. C/C(=N\NC(=O)c1cccc(N/N=C(\C)c2ccco2)c1)c1ccco1

7.39 µM (active)
4.59 µM (active)
6.46 µM (active)
4.59 µM (active)
3.17 µM (active)

Required: IC50, one value per compound below.
1. COc1ccc([C@@H]2CC(=O)c3c(O)cc(O[C@@H]4O[C@H](CO[C@@H]5O[C@@H](C)[C@H](O)[C@@H](O)[C@H]5O)[C@@H](O)[C@H](O)[C@H]4O)cc3O2)cc1O
2. O=C(COC(=O)/C=C/c1ccco1)Nc1ncc(Cl)cc1Cl
3. C=C(C)C(=O)Nc1cccc(C2=NOC3(C2)C[C@H](C(N)=O)N(C(=O)c2ccccc2)C3)c1 (stereo partly specified)

1: 20.7 µM (active); 2: 17 µM (active); 3: 3.85 µM (active)

----------
target: Kappa-type opioid receptor (Homo sapiens, UniProt P41145); format: functional
Sequence (P41145 whole entry): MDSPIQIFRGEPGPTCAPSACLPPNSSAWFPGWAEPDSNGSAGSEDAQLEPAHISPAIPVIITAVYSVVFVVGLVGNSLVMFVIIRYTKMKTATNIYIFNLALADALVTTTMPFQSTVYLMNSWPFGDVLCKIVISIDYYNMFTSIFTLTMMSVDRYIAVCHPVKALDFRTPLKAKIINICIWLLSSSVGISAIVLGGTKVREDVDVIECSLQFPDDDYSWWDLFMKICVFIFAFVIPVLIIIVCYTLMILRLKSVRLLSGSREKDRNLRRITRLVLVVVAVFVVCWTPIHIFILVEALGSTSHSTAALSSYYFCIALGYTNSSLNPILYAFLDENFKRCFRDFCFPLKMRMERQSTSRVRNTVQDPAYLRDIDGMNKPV
pIC50: −log10 of the molar value.
Measured quantity: pIC50

The examples below pair each entry with its known result.
- Substance smiles: "O=C(Nc1nccs1)c1sc2cc(Cl)ccc2c1Cl"
  pIC50: "< 4.49"
- Substance smiles: "O=S1(=O)Nc2c(ccc3cccnc23)-c2ccccc21"
  pIC50: "< 4.49"

# molecule O=C(Nc1nc2ccc(F)cc2s1)c1ccccn1 ; its pIC50 = < 4.49
